# maps each entry to its IC50, IGF1-stimulated IGFR phosphorylation, H292 cells, ELISA
measured_target: IGF-IR on human tumour cells (H292, MCF-7, RH41) (human, UniProt P08069 31-1367)
test: cell-based or functional assay
Write down the numeric answer in nM and omit the unit.

- binder: "E4-GS10-I1 pegylated, His-tagged (designed binder, 40 kDa branched PEG on the Cys of the C-terminal Cys tail, also called E4-GS10-I1 (with Peg)) MGVSDVPRDLEVVAATPTSLLISWHERDGSRQYYRITYGETGGNSPVQEFTVPGGVRTATISGLKPGVDYTITVYAVTDYFNPTTHEYIYQTTPISINYRTEIDKGSGSGSGSGSGSGSGSGSGSVSDVPRDLEVVAATPTSLLISWSARLKVARYYRITYGETGGNSPVQEFTVPKNVYTATISGLKPGVDYTITVYAVTRFRDYQPISINYRTEIDKPCQHHHHHH"
  meas_value: 0.4

Query: # IC50, IGF1-stimulated IGFR phosphorylation, H292 cells, ELISA lookup, item I1-GS10-E112 pegylated (designed binder, Cys of the C-terminal Cys tail conjugated to 40 kDa branched PEG) I/E tandem 10Fn3 chain: MGVSDVPRDLEVVAATPTSLLISWSARLKVARYYRITYGETGGNSPVQEFTVPKNVYTATISGLKPGVDYTITVYAVTRFRDYQPISINYRTEIDKGSGSGSGSGSGSGSGSGSGSVSDVPRDLEVVAATPTSLLISWDAGAVTYQYYRITYGETGGNSPVQEFTVPGGVRTATISGLKPGVDYTITVYAVTDYKPHADGPHTYHEYPISINYRTEIDKPCQHHHHHH
Result: 0.3

Query: # IC50, IGF1-stimulated IGFR phosphorylation, H292 cells, ELISA lookup, item I1-GS10-E85 pegylated, His-tagged (designed binder, 40 kDa branched PEG on the Cys of the C-terminal Cys tail) MGVSDVPRDLEVVAATPTSLLISWSARLKVARYYRITYGETGGNSPVQEFTVPKNVYTATISGLKPGVDYTITVYAVTRFRDYQPISINYRTEIDKGSGSGSGSGSGSGSGSGSGSVSDVPRDLEVVAATPTSLLISWTQGSTHYQYYRITYGETGGNSPVQEFTVPGMVYTATISGLKPGVDYTITVYAVTDYFDRSTHEYKYRTTPISINYRTEIDKPCQHHHHHH
Result: 0.7

Query: # IC50, IGF1-stimulated IGFR phosphorylation, H292 cells, ELISA lookup, item E96-GS10-I1 pegylated (designed binder, Cys of the C-terminal Cys tail conjugated to 40 kDa branched PEG) E/I tandem 10Fn3 chain: MGVSDVPRDLEVVAATPTSLLISWASNRGTYQYYRITYGETGGNSPVQEFTVPGGVSTATISGLKPGVDYTITVYAVTDAFNPTTHEYNYFTTPISINYRTEIDKGSGSGSGSGSGSGSGSGSGSVSDVPRDLEVVAATPTSLLISWSARLKVARYYRITYGETGGNSPVQEFTVPKNVYTATISGLKPGVDYTITVYAVTRFRDYQPISINYRTEIDKPCQHHHHHH
Result: 0.4

Query: # IC50, IGF1-stimulated IGFR phosphorylation, H292 cells, ELISA lookup, item I1 IGF-IR 10Fn3-based binder, His-tagged monomer (designed binder) MGVSDVPRDLEVVAATPTSLLISWSARLKVARYYRITYGETGGNSPVQEFTVPKNVYTATISGLKPGVDYTITVYAVTRFRDYQPISINYRTEIDKPSQHHHHHH
Result: 0.4

Query: # IC50, IGF1-stimulated IGFR phosphorylation, H292 cells, ELISA lookup, item E90-GS10-I1 pegylated (designed binder, Cys of the C-terminal Cys tail conjugated to 40 kDa branched PEG) E/I tandem 10Fn3 chain: MGVSDVPRDLEVVAATPTSLLISWYWEGLPYQYYRITYGETGGNSPVQEFTVPRDVNTATISGLKPGVDYTITVYAVTDWYNPDTHEYIYHTIPISINYRTEIDKGSGSGSGSGSGSGSGSGSGSVSDVPRDLEVVAATPTSLLISWSARLKVARYYRITYGETGGNSPVQEFTVPKNVYTATISGLKPGVDYTITVYAVTRFRDYQPISINYRTEIDKPCQHHHHHH
Result: 0.4
